viscosity values by entry
Conditions: 323.15 K; 101 kPa
Field: numeric (mPa·s). Do not append units.

compound.smiles: CCCCCCCCCC
unit.of.measure: mPa·s
viscosity: 0.6085

Reported viscosity of OC1CCCCC1 : 8.89

CC(=O)O.NCCO yielded viscosity of 477.5

For reference, reported viscosity for CCCCCCn1cc[n+](C)c1.O=S(=O)([N-]S(=O)(=O)C(F)(F)F)C(F)(F)F stands at 28.8

* * *

Experiment: xn = mol fraction of the nth substance listed
Details: 298.15 K; 101 kPa; x1 = 0.2
Returns MET if the recorded viscosity is greater than or equal to 0.7 mPa·s, and NOT MET otherwise.

Study these solved cases before continuing.
compound: CCCCC + COC(C)=O
assigned.label: NOT MET
//
compound: CS(C)=O + O
assigned.label: MET
//
compound: CS(C)=O + CC#N
assigned.label: NOT MET
//
compound: CC1(C)OCC(CO)O1 (configuration not stated) + OCCO
assigned.label: MET
//
compound: CS(C)=O + Cc1ccccc1
assigned.label: NOT MET

# next compound below
State whether the measured viscosity reaches 0.7 mPa·s, counting equality as reaching it, for CS(C)=O + CCO MET

* * *

// reported viscosity for each item listed
Assay: xn = mol fraction of the nth substance listed
Conditions: 298.15 K; 101 kPa; x2 = 0.15
Just the number please, in mPa·s, no unit attached.

molecule: CCCCCCCO + CCO
unit.of.measure: mPa·s
recorded.measurement: 4.838
--
molecule: CCCCCCCO + CO
unit.of.measure: mPa·s
recorded.measurement: 4.634
--
molecule: CCCCCCCO + CCCCO
unit.of.measure: mPa·s
recorded.measurement: 5.398
--
molecule: CCCCCCCO + CCCO
unit.of.measure: mPa·s
recorded.measurement: 5.11

As a next step, examine the molecule that follows.
Just so you know, measured viscosity for CCN(CC)CCO + O=C1CCCCC1 came out at 3.002

* * *

Test: xn = mol fraction of the nth substance listed
Details: 308.15 K; 101 kPa; x2 = 0.2
Here the recorded viscosity is given for each entry.
Give the value, in units of mPa·s, as a plain number.

compound: CCCCCCCO + CCO
viscosity / mPa·s: 3.4
//
compound: CCCCCCCO + CCCO
viscosity / mPa·s: 3.607
//
compound: CCCCCCCO + CO
viscosity / mPa·s: 3.246

We now examine a further compound.
The compound identified as CCN(CC)CCO + O=C1CCCCC1 registered its viscosity at 2.126

* * *

Assay: xn = mol fraction of the nth substance listed
Settings: 303.15 K; 100 kPa; x2 = 0.3
quantity: viscosity (mPa·s)
Express it in mPa·s; write the number only.

Worked examples, 3 molecules total:
molecule: CC(=O)CC(C)(C)O + CC(C)O
quantity: viscosity
recorded.measurement: 2.19
--
molecule: OC1CCCCC1 + OC1CCCC1
quantity: viscosity
recorded.measurement: 23.18
--
molecule: CC(=O)CC(C)(C)O + O
quantity: viscosity
recorded.measurement: 3.65

// switching to the query molecule
Noted for CS(C)=O + CCO : its viscosity reads 1.39

* * *

Assay: xn = mol fraction of the nth substance listed
Conditions: 298.15 K; 101 kPa; x2 = 0.4
quantity: viscosity (mPa·s)
Report only the number, with the unit mPa·s understood.

Example entries and their recorded answers appear below.
molecule: CCCCCCCO + CCO
quantity: viscosity
recorded.measurement: 3.439
--
molecule: CCCCCCCO + CCCCO
quantity: viscosity
recorded.measurement: 4.664
--
molecule: CCCCCCCO + CO
quantity: viscosity
recorded.measurement: 3.025

CCN(CC)CCO + O=C1CCCCC1 yielded viscosity of 2.49

Note to self: viscosity recorded for CCCCCCCO + CCCO was 4.026
